# experimental.details: Microsomal stability, human
# Format: in vitro ADME
# cond: clearance in microsomes
*1 amine or outer side, *2 acyl side, *3 side chain or, on linkers, in order; H or OH if unused. Where a SMILES comes first, the peptide text is derived from it. [ ]: non-standard residue; d: D form. X1 = C#CCn1cc(C[C@H](N[*:1])C(=O)[*:2])c2ccccc21; NMeLeu(5-OH,4R) = CN[C@@H](C[C@@H](C)CO)C(=O)O; Phe(βR-OMe) = CO[C@H](c1ccccc1)[C@H](N)C(=O)O; Trp(1-Me) = Cn1cc(C[C@H](N)C(=O)O)c2ccccc21; NMeL = CN[C@@H](CC(C)C)C(=O)O
measurement.kind: Microsomal Stability Human

// below: answered compounds
compound	Microsomal Stability Human
C#CCn1cc(C[C@@H]2NC(=O)[C@H](C(C)C)NC(=O)[C@H](CC(C)C)N(C)C(=O)[C@H](C(C)C)NC(=O)[C@H](Cc3ccccc3)NC(=O)[C@H](C)NC(=O)[C@H](C[C@@H](C)CO)N(C)C2=O)c2ccccc21 [SI-72] (cyclo(AFV[NMeL]V[X1][NMeLeu(5-OH,4R)]))	> 88 %Qh
CO[C@H](c1ccccc1)[C@@H]1NC(=O)[C@H](C)NC(=O)[C@H](C[C@@H](C)CO)N(C)C(=O)[C@H](Cc2cn(C)c3ccccc23)NC(=O)[C@H](CCC(=O)N(C)C)NC(=O)[C@H](CC(C)C)N(C)C(=O)[C@H](C(C)C)NC1=O [SI-74] (cyclo(A[Phe(βR-OMe)]V[NMeL]E(NMe2)[Trp(1-Me)][NMeLeu(5-OH,4R)]))	61 %Qh

Continue with the compound presented below.
Qu. Answer with the recorded Microsomal Stability Human of CO[C@H](c1ccccc1)[C@@H]1NC(=O)[C@H](C)NC(=O)[C@H](C[C@@H](C)CO)N(C)C(=O)[C@H](Cc2cn(C)c3ccccc23)NC(=O)[C@H](Cc2cn(CCOCCOCCn3cc(C[C@@H]4NC(=O)[C@H](CC(C)C)N(C)C(=O)[C@H](C(C)C)NC(=O)[C@H]([C@H](OC)c5ccccc5)NC(=O)[C@H](C)NC(=O)[C@H](C[C@@H](C)CO)N(C)C(=O)[C@H](Cc5cn(C)c6ccccc56)NC4=O)nn3)nn2)NC(=O)[C@H](CC(C)C)N(C)C(=O)[C@H](C(C)C)NC1=O [Compound 11] only.
Ans. < 24 %Qh
